Cited source: ChEMBL document CHEMBL4028802

Species on record: Homo sapiens
Experiment: Liver toxicity in human assessed as induction of drug-induced liver injury by measuring severity class index
Readout type: DILI_severity_class
Lab note: record just the number, no unit beside it.

Answered examples (3):
CC(C)[C@H]1CC[C@H](C(=O)N[C@H](Cc2ccccc2)C(=O)O)CC1 [NATEGLINIDE] :: 3
C=CC1=C(C(=O)O)N2C(=O)[C@@H](NC(=O)/C(=N\OCC(=O)O)c3csc(N)n3)[C@H]2SC1 :: 4
C[C@]1(O)CC[C@H]2[C@@H]3CCC4=CC(=O)CC[C@]4(C)[C@@]3(F)[C@@H](O)C[C@@]21C :: 8

What measured DILI_severity_class goes with COc1cc2nc(N3CCN(C(=O)c4ccco4)CC3)nc(N)c2cc1OC ?
3

What measured DILI_severity_class goes with COC[C@@H](NC(C)=O)C(=O)NCc1ccccc1 [LACOSAMIDE] ?
3

What measured DILI_severity_class goes with C[C@H]1O[C@H](O[C@H]2[C@H](O)[C@@H](O)[C@@H](O[C@H]3[C@H](O)[C@@H](O)C(O)O[C@@H]3CO)O[C@@H]2CO)[C@H](O)[C@@H](O)[C@@H]1N[C@H]1C=C(CO)[C@@H](O)[C@H](O)[C@H]1O (stereo not given in full) ?
8

What measured DILI_severity_class goes with CNS(=O)(=O)CCc1ccc2[nH]cc(C3CCN(C)CC3)c2c1 ?
4

What measured DILI_severity_class goes with O=C1CN=C(c2ccccc2Cl)c2cc([N+](=O)[O-])ccc2N1 ?
3

###

Species: Homo sapiens
Experiment: Liver toxicity in human assessed as induction of drug-induced liver injury by measuring verified drug-induced liver injury concern status
Non-standard residues stand in square brackets, D forms with d. Residues, ends and D or L forms follow the SMILES beside them. pGlu = O=C1CC[C@@H](C(=O)O)N1
Readout type: DILI_Concern

Cc1nnc(C(=O)NC(C)(C)c2nc(C(=O)NCc3ccc(F)cc3)c(O)c(=O)n2C)o1 :: Most-Dili-Concern
Cc1nnc(SCC2=C(C(=O)O)N3C(=O)[C@@H](NC(=O)Cn4cnnn4)[C@H]3SC2)s1 [CEFAZOLIN] :: Less-Dili-Concern
CCc1cccc2c3c([nH]c12)C(CC)(CC(=O)O)OCC3 (stereo not given) [ETODOLAC] :: Most-Dili-Concern
CCCCCCCCCC(=O)O[C@H]1CC[C@H]2[C@@H]3CCC4=CC(=O)CC[C@@H]4[C@H]3CC[C@]12C [NANDROLONE DECANOATE] :: Most-Dili-Concern
CC1(C)NC(=O)N(c2ccc([N+](=O)[O-])c(C(F)(F)F)c2)C1=O [NILUTAMIDE] :: Most-Dili-Concern
COCC1=C(C(=O)O)N2C(=O)[C@@H](NC(=O)/C(=N\OC)c3csc(N)n3)[C@H]2SC1 [CEFPODOXIME] :: Ambiguous-Dili-Concern
CN(C)CCC=C1c2ccccc2COc2ccccc21 [DOXEPIN] :: Less-Dili-Concern
COc1ccc(Cl)cc1C(=O)NCCc1ccc(S(=O)(=O)NC(=O)NC2CCCCC2)cc1 [GLYBURIDE] :: Less-Dili-Concern
CC(C)c1cccc(C(C)C)c1OCOP(=O)(O)O [FOSPROPOFOL] :: Less-Dili-Concern
CCNC(=O)[C@@H]1CCCN1C(=O)[C@H](CCCNC(=N)N)NC(=O)[C@H](CC(C)C)NC(=O)[C@H](CC(C)C)NC(=O)[C@H](Cc1ccc(O)cc1)NC(=O)[C@H](CO)NC(=O)[C@H](Cc1c[nH]c2ccccc12)NC(=O)[C@H](Cc1c[nH]cn1)NC(=O)[C@@H]1CCC(=O)N1 ([pGlu]HWSYLLRP-NHEt) :: Less-Dili-Concern

What measured DILI_Concern goes with O=C(O)CCCO [OXYBATE] ?
No-Dili-Concern

What measured DILI_Concern goes with NC(=O)C(c1ccccc1)(c1ccccc1)[C@@H]1CCN(CCc2ccc3c(c2)CCO3)C1 [DARIFENACIN] ?
No-Dili-Concern

What measured DILI_Concern goes with CC(C)C(=O)Oc1ccc(CO)cc1[C@H](CCN(C(C)C)C(C)C)c1ccccc1 [FESOTERODINE] ?
No-Dili-Concern

What measured DILI_Concern goes with NC12CC3CC(CC(C3)C1)C2 [AMANTADINE] ?
Ambiguous-Dili-Concern

What measured DILI_Concern goes with NC(=O)CC[C@@H]1NC(=O)[C@H](Cc2ccccc2)NC(=O)[C@H](Cc2ccc(O)cc2)NC(=O)[C@@H](N)CSSC[C@@H](C(=O)N2CCC[C@H]2C(=O)N[C@@H](CCCN=C(N)N)C(=O)NCC(N)=O)NC(=O)[C@H](CC(N)=O)NC1=O [VASOPRESSIN] ?
No-Dili-Concern
